Each record here notes measured Dmax.
TESTED ON: AsPC-1 HiBiT-KRASG12D (Homo sapiens, UniProt P01116, G12D)
Construct: insert the HiBiT tag onto the N-terminus of one or more of the endogenous KRAS alleles; endogenous in cells; host or cells: AsPC-1 (ATCC CRL-1682), CRISPR-Cas9 knock-in clone, one tagged allele
Sequence (P01116 1-188 isoform P01116-2 G12D): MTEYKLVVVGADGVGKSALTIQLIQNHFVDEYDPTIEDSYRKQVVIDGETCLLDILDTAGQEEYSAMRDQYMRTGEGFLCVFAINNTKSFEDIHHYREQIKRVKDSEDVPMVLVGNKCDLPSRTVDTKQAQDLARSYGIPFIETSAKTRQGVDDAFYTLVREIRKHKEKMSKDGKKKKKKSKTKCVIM
PROTOCOL TEXT: HiBiT degradation assay (G12D), AsPC-1 HiBiT-KRASG12D cells
Assay type: cell-based
MEASUREMENT SETUP: ASPC1, AsPC-1 HiBiT-KRASG12D cells, 24 hours treatment, maximum degradation observed
PROPERTY MEASURED: Dmax

| COMPOUND | TESTED ON | PROPERTY MEASURED | RESULT VALUE |
| --- | --- | --- | --- |
| CCc1cccc2cc(O)cc(-c3ncc4c(N5CC6CCC(C5)N6)nc(OC[C@@]56CCCN5[C@H](CN5CCC(F)(COc7cc([C@@H](C(=O)N8C[C@H](O)C[C@H]8C(=O)N[C@@H](C)c8ccc(-c9scnc9C)cc8)C(C)C)on7)CC5)CC6)nc4c3F)c12 [Compound 336] | AsPC-1 HiBiT-KRASG12D (Homo sapiens, UniProt P01116, G12D) | Dmax | 20 to 60% |
| CCc1cccc2cc(O)cc(-c3ncc4c(N5CC6CCC(C5)N6)nc(OCCN5CCC(C(C)(C)N6CCN(c7cc([C@@H](C(=O)N8C[C@H](O)C[C@H]8C(=O)N[C@@H](C)c8ccc(-c9scnc9C)cc8)C(C)C)on7)CC6)CC5)nc4c3F)c12 (single isomer, unassigned) [Compound 254] | AsPC-1 HiBiT-KRASG12D (Homo sapiens, UniProt P01116, G12D) | Dmax | 20 to 60% |
| CCc1cccc2cc(O)cc(-c3ncc4c(N5CC6CCC(C5)N6)nc(OCCN5CCC(C)(CCOc6cc([C@@H](C(=O)N7C[C@H](O)C[C@H]7C(=O)N[C@@H](C)c7ccc(-c8scnc8C)cc7)C(C)C)on6)CC5)nc4c3F)c12 [Compound 238] | AsPC-1 HiBiT-KRASG12D (Homo sapiens, UniProt P01116, G12D) | Dmax | 80 to 100% |
| CCc1cccc2cc(O)cc(-c3ncc4c(N5CC6CCC(C5)N6)nc(OCCC5CCN(CC6CN(c7cc([C@@H](C(=O)N8C[C@H](O)C[C@H]8C(=O)N[C@@H](C)c8ccc(-c9scnc9C)cc8)C(C)C)on7)C6)CC5)nc4c3F)c12 [Compound 219] | AsPC-1 HiBiT-KRASG12D (Homo sapiens, UniProt P01116, G12D) | Dmax | 20 to 60% |
| CCc1cccc2cc(O)cc(-c3ncc4c(N5CC6CCC(C5)N6)nc(OCCN5CCC(COCC(=O)N[C@H](C(=O)N6C[C@H](O)C[C@H]6C(=O)N[C@@H](C)c6ccc(-c7scnc7C)cc6)C(C)(C)C)CC5)nc4c3F)c12 [Compound 21] | AsPC-1 HiBiT-KRASG12D (Homo sapiens, UniProt P01116, G12D) | Dmax | 80 to 100% |
| CCc1cccc2cccc(-c3ncc4c(N5CC6CCC(C5)N6)nc(OC[C@]56CCCN5[C@H](COc5cc([C@H](C(=O)N7C[C@H](O)C[C@H]7C(=O)N[C@@H](C)c7ccc(-c8scnc8C)cc7)C(C)C)on5)CC6)nc4c3F)c12 [Compound 309] | AsPC-1 HiBiT-KRASG12D (Homo sapiens, UniProt P01116, G12D) | Dmax | < 20% |
| Cc1ncsc1-c1ccc([C@H](C)NC(=O)[C@@H]2C[C@@H](O)CN2C(=O)[C@@H](c2cc(OCC3CCN(CCOc4nc(N5CC6CCC(C5)N6)c5cnc(-c6cc(O)cc(Cl)c6C(C)C)c(F)c5n4)CC3)no2)C(C)C)cc1 [Compound 41] | AsPC-1 HiBiT-KRASG12D (Homo sapiens, UniProt P01116, G12D) | Dmax | 20 to 60% |
| CCc1cccc2cc(O)cc(-c3ncc4c(N5CC6CCC(C5)N6)nc(OCCN5CCC(OCC(=O)N[C@H](C(=O)N6C[C@H](O)C[C@H]6C(=O)N[C@@H](C)c6ccc(-c7scnc7C)cc6)C(C)(C)C)CC5)nc4c3F)c12 [Compound 12] | AsPC-1 HiBiT-KRASG12D (Homo sapiens, UniProt P01116, G12D) | Dmax | 80 to 100% |
| CCc1cccc2cc(O)cc(-c3ncc4c(N5CC6CCC(C5)N6)nc(OC[C@@]56CCCN5[C@H](COC(=O)N5CCC(Oc7cc([C@@H](C(=O)N8C[C@H](O)C[C@H]8C(=O)N[C@@H](C)c8ccc(-c9scnc9C)cc8)C(C)C)on7)CC5)CC6)nc4c3F)c12 [Compound 118] | AsPC-1 HiBiT-KRASG12D (Homo sapiens, UniProt P01116, G12D) | Dmax | 20 to 60% |
| CCc1cccc2cc(O)cc(-c3ncc4c(N5CC6CCC(C5)N6)nc(OCCN5CCC6(CC5)CN(c5cc([C@H](C(=O)N7C[C@H](O)C[C@H]7C(=O)N[C@@H](C)c7ccc(-c8ccnn8C)cc7)C(C)C)on5)C6)nc4c3F)c12 (relative stereo) [Compound 140] | AsPC-1 HiBiT-KRASG12D (Homo sapiens, UniProt P01116, G12D) | Dmax | 80 to 100% |
| CCc1cccc2cc(O)cc(-c3ncc4c(N5CC6CCC(C5)N6)nc(OCCC5CCN(CC6CN(c7cc([C@H](C(=O)N8C[C@H](O)C[C@H]8C(=O)N[C@@H](C)c8ccc(-c9scnc9C)cc8)C(C)C)on7)C6)CC5)nc4c3F)c12 [Compound 218] | AsPC-1 HiBiT-KRASG12D (Homo sapiens, UniProt P01116, G12D) | Dmax | 80 to 100% |
| C#Cc1c(F)ccc2cc(O)cc(-c3ncc4c(N5CC6CCC(C5)N6)nc(OCCN5CCC(CC6CN(c7cc([C@H](C(=O)N8C[C@H](O)C[C@H]8C(=O)N[C@@H](C)c8ccc(-c9ccnn9C)cc8)C(C)C)on7)C6)CC5)nc4c3F)c12 [Compound 156] | AsPC-1 HiBiT-KRASG12D (Homo sapiens, UniProt P01116, G12D) | Dmax | 80 to 100% |
| CCc1cccc2cc(O)cc(-c3ncc4c(N5CC6CCC(C5)N6)nc(OC[C@@H]5CC[C@@H](COC(=O)N6CCN(c7cc([C@@H](C(=O)N8C[C@H](O)C[C@H]8C(=O)N[C@@H](C)c8ccc(-c9scnc9C)cc8)C(C)C)on7)CC6)N5C)nc4c3F)c12 [Compound 289] | AsPC-1 HiBiT-KRASG12D (Homo sapiens, UniProt P01116, G12D) | Dmax | 20 to 60% |
| CCc1cccc2cc(O)cc(-c3ncc4c(N5CC6CCC(C5)N6)nc(OC[C@@]56CCCN5[C@H](COC(=O)N(C)Cc5cc([C@@H](C(=O)N7C[C@H](O)C[C@H]7C(=O)N[C@@H](C)c7ccc(-c8scnc8C)cc7)C(C)C)on5)CC6)nc4c3F)c12 [Compound 91] | AsPC-1 HiBiT-KRASG12D (Homo sapiens, UniProt P01116, G12D) | Dmax | 20 to 60% |
| CCc1cccc2cc(O)cc(-c3ncc4c(N5CC6CCC(C5)N6)nc(OCCN5CCC(CC6CCN(c7cc([C@H](C(=O)N8C[C@H](O)C[C@H]8C(=O)N[C@@H](C)c8ccc(-c9ccnn9C)cc8)C(C)C)on7)CC6)CC5)nc4c3F)c12 [Compound 202] | AsPC-1 HiBiT-KRASG12D (Homo sapiens, UniProt P01116, G12D) | Dmax | 80 to 100% |

----------
Recorded measurements of DC50, one per entry
TESTED ON: AsPC-1 HiBiT-KRASG12D (Homo sapiens, UniProt P01116, G12D)
Construct: insert the HiBiT tag onto the N-terminus of one or more of the endogenous KRAS alleles; endogenous in cells; host or cells: AsPC-1 (ATCC CRL-1682), CRISPR-Cas9 knock-in clone, one tagged allele
PROTOCOL TEXT: HiBiT degradation assay (G12D), AsPC-1 HiBiT-KRASG12D cells
Assay type: cell-based
MEASUREMENT SETUP: AsPC-1 HiBiT-KRASG12D cells, 24 hours treatment, HiBiT luminescence

| MOLECULE | DC50 |
| --- | --- |
| CCc1cccc2cc(O)cc(-c3ncc4c(N5CC6CCC(C5)N6)nc(OC[C@]56CCCN5[C@H](COC(=O)N5CC(Oc7cc([C@H](C(=O)N8C[C@H](O)C[C@H]8C(=O)N[C@@H](C)c8ccc(-c9scnc9C)cc8)C(C)C)on7)C5)CC6)nc4c3F)c12 [Compound 128] | < 600 nM |
| CCc1cccc2cc(O)cc(-c3ncc4c(N5CC6CCC(C5)N6)nc(OCCN5CCC(C)(CCOc6cc([C@@H](C(=O)N7C[C@H](O)C[C@H]7C(=O)N[C@@H](C)c7ccc(-c8scnc8C)cc7)C(C)C)on6)CC5)nc4c3F)c12 [Compound 238] | < 600 nM |
| CCc1cccc2cc(O)cc(-c3ncc4c(N5CC6CCC(C5)N6)nc(OC[C@@H]5CC[C@@H](COC(=O)N6CC(Oc7cc([C@H](C(=O)N8C[C@H](O)C[C@H]8C(=O)N[C@@H](C)c8ccc(-c9scnc9C)cc8)C(C)C)on7)C6)N5C)nc4c3F)c12 [Compound 294] | < 600 nM |
| CCc1cccc2cc(O)cc(-c3ccc4c(N5CC6CCC(C5)N6)nc(OC[C@]56CCCN5[C@H](COC(=O)N5CCN(c7cc(C(C(=O)N8C[C@H](O)C[C@H]8C(=O)N[C@@H](C)c8ccc(-c9scnc9C)cc8)C(C)C)on7)CC5)CC6)nc4c3F)c12 (single isomer, unassigned) [Compound 267] | < 600 nM |

FYI, the data here is from patent US20250206732A1.
